system-under-test: Carboxy-terminal domain RNA polymerase II polypeptide A small phosphatase 1 (Homo sapiens) (UniProt Q9GZU7)
Sequence (Q9GZU7 76-261 limits assumed): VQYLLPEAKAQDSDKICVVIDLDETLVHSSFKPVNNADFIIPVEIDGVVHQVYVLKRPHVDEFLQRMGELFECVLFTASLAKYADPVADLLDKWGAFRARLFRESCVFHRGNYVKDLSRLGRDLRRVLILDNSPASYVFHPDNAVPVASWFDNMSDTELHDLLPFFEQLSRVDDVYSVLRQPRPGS
protocol-notes: Scp-1 binding by thermal shift, confirmation, orthogonal assay for Scp-1 inhibitor project, biophysical, differential scanning fluorimetry (AID 540329);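 note: 0% = Tm of DMSO wells and 100% = Tm with sodium orthovanadate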
setup-conditions: Recombinant SCP1, Sypro Orange thermal shift Tm; at 40 µM; stronger effect = higher value
This is one part of the list.
result-type: thermal shift relative to vanadate control (%)
Could you give me the number in %? Just the number is fine.

Sample records with thermal shift relative to vanadate control:
| molecular-string | value |
| --- | --- |
| Cc1oc2c(C)c3oc(=O)c(CC(=O)N[C@@H](CC(C)C)C(=O)N[C@@H](Cc4ccccc4)C(=O)O)c(C)c3cc2c1C | -12.3 |
| COc1ccc(Cc2nnc(NC(=O)Cc3cccs3)s2)cc1 | 9.39 |

Ask: Any idea what its thermal shift relative to vanadate control is? The molecule is O=C1NN(c2ccccc2)C(=O)/C1=C/c1ccc(-c2cccc(C(=O)O)c2)o1
Reply: 14.3

---

protocol-notes: caspase-8 TRAIL sensitization, hit retest, confirmation, cell-based, NB7+caspase-8, with/without TRAIL, luminescence panel (AID 651596)
setup-conditions: NB7 neuroblastoma + caspase-8, without TRAIL, luminescence viability, without TRAIL, mean of runs, at 10 µM
result-type: activity (%)
Could you give me the number in %? Just the number is fine.

| compound | activity, % |
| --- | --- |
| O=C(/C=C/Nc1ccccc1)c1ccccc1 | 44.8 |
| O=C(Nc1ccc(N2CCOCC2)cc1)c1cnsn1 | 75.9 |
| O=C(CC(Nc1ccc(Cl)cc1)C(=O)O)c1ccccc1 (configuration not stated) | 73.2 |
| Cc1cc(C)c2sc(N(CCCN(C)C)C(=O)c3ccc(S(=O)(=O)N4CCCc5ccccc54)cc3)nc2c1 | 32.4 |
| N=c1oc2cc(O)ccc2cc1C(=O)Nc1ccc(Cl)cc1 | 39.3 |

Ask: Any idea what its activity is? The compound is CN(C)CCCN(C(=O)c1ccc(S(=O)(=O)N2CCc3ccccc3C2)cc1)c1nc2ccc(F)cc2s1
Reply: 17.1

Ask: Lookup CCN(CC)S(=O)(=O)c1ccc(NC(=O)Nc2cccc(C(F)(F)F)c2)cc1
Reply: 71.3

Ask: Lookup CS(=O)(=O)Nc1cccc(NC(=O)C2Cc3c(-c4ccccc4)ccnc3O2)c1 (configuration not stated)
Reply: 69.3

Ask: Lookup CC(C)c1nnc(NC(=O)c2c(O)c3cccc4c3n(c2=O)CCC4)s1
Reply: 36.5

Ask: Lookup Cc1ccc(NC(=O)Cn2ncc(Cl)c(Cl)c2=O)cc1S(=O)(=O)N1CCCCC1
Reply: 99.5

Ask: Lookup COc1ccccc1NC(CC(=O)c1ccccc1)C(=O)OCC(=O)c1ccc(C)cc1 (configuration not stated)
Reply: 69

Ask: Lookup CN(C(=O)c1ccco1)c1nc2c(s1)CCCC2
Reply: 60.5

Ask: Lookup COc1ccc(C(=O)Nc2ccccc2C(=O)N/N=C/c2cccc3ccccc23)cc1
Reply: 95.8

Ask: Lookup Cc1nc2nc(C)n(CCN3CCOCC3)c(=O)c2c(-c2cccc([N+](=O)[O-])c2)c1C(=O)CCCCCCCCCCN1CCC(c2ccccc2)(c2ccccc2)CC1
Reply: 89.9

Ask: Lookup Cc1ccc(Nc2nc(CSc3nnnn3C)cs2)cc1
Reply: 8.93

Ask: Lookup CCCn1c(C)cc(C(=O)CN2C(=O)c3ccccc3S2(=O)=O)c1C
Reply: 62.3

Ask: Lookup COc1ccc(/C(N)=N/OC(=O)c2ccc3ccccc3c2)cc1OC
Reply: 98

Ask: Lookup C=C1CC2(OC1=O)c1ccccc1CCc1ccccc12
Reply: 99.3

Ask: Lookup Clc1ccc(-n2cnc3c(Cl)ncnc32)cc1Cl
Reply: 79

Ask: Lookup COc1ccc2nc(-c3ccccc3)[nH]c2c1
Reply: 65.5

Ask: Lookup Cc1cccc(NC(=O)CCc2ccc(N3C(N)=NC(N)=NC3(C)C)cc2)c1
Reply: 80.4

Ask: Lookup Cn1cc([N+](=O)[O-])c(C(=O)Nc2nc(-c3ccc(Cl)cc3)cs2)n1
Reply: 98.7

Ask: Lookup NC(C(=O)O)C1ON=C(Cl)C1O (configuration not stated)
Reply: 88.3

Ask: Lookup Cc1cccc(-n2ncc3c(N4CCOCC4)ncnc32)c1
Reply: 88.5

Ask: Lookup Cc1ccc(-c2cc(C(=O)N/N=C/c3cccnc3)c3ccccc3n2)cc1C
Reply: 35

Ask: Lookup CCOC(=O)c1c(C)nc2c3ccccc3ccn12
Reply: 58.9

Ask: Lookup Cc1ccc(N(Cc2cc(=O)[nH]c3ccccc23)C(=O)CCl)cc1
Reply: 99.3

Ask: Lookup CCOc1ccc(N/C=C/C(=O)c2ccccc2)c([N+](=O)[O-])c1
Reply: 89.7

Ask: Lookup CCOC(=O)C(=C1Nc2ccccc2N1)n1c(-c2cccnc2)nc2ccccc21
Reply: 52

Ask: Lookup O=C(Cn1ncc(Cl)c(Cl)c1=O)NC(=O)NC1CCCCC1
Reply: 99.3

Ask: Lookup C/C(=N\NC(=O)c1ccc(O)cc1)c1cccc(NC(=O)c2ccccc2C)c1
Reply: 61.3

Ask: Lookup CCCCCN=Cc1c(C)[nH]n(-c2nc3ccccc3s2)c1=O
Reply: 95.9

---

protocol-notes: caspase-8 TRAIL sensitization, hit retest, confirmation, cell-based, NB7+caspase-8, with/without TRAIL, luminescence panel (AID 651596)
setup-conditions: NB7 neuroblastoma + caspase-8, without TRAIL, luminescence viability, without TRAIL, mean of runs, at 10 µM
result-type: activity (%)
Could you give me the number in %? Just the number is fine.

| molecule | units-symbol | activity |
| --- | --- | --- |
| O=C(CCl)N(c1ccccc1)c1c[nH]c2ccccc12 | % | 99 |

Ask: Any idea what its activity is? The molecule is O=C(c1ccncc1)N1CCN(c2cc(-c3ccccc3)nc3cc(-c4cccc(Cl)c4)nn23)CC1
Reply: -15.8

Ask: Lookup Cc1cc(-c2ccccc2)nc(N/N=C/c2ccccc2)n1
Reply: 50.3

---

system-under-test: Tumor necrosis factor receptor superfamily member 10B (Homo sapiens)
protocol-notes: caspase-8 TRAIL sensitization, hit retest, confirmation, cell-based, NB7+caspase-8, with/without TRAIL, luminescence panel (AID 651596)
setup-conditions: NB7 neuroblastoma + caspase-8, TRAIL sensitization, luminescence viability, with TRAIL, mean of runs, at 10 µM, stronger effect = higher value
Mark class 1 only for activity values smaller than 50%; exact matches and larger values are class 0.

| molecule | class-name |
| --- | --- |
| COc1cc(SC)ccc1C(=O)NNC(=O)c1cc(C)oc1C | class 0 |
| O=C(c1cc(-c2ccc(Cl)cc2Cl)on1)N1CCOCC1 | class 0 |
| CCOC(=O)COc1ccc(-c2nnc(-c3ccccc3)o2)cc1 | class 1 |
| CCOc1ccc(OCc2cccc(C(=O)N3CCOCC3)c2)cc1 | class 0 |
| Cc1ccccc1C(=O)O/N=C(\N)Cc1cccs1 | class 0 |
| COc1cc(NC(=O)c2cncc(-c3ccc(C#N)cc3)c2)cc(C(=O)Nc2cccc(C(F)(F)F)c2)c1 | class 0 |
| Cc1cc(NC(=O)C2CCCC2)nc2c1c(=O)oc1ccccc12 | class 0 |
| Cc1ccc(Nc2nc(N)nc(CCl)n2)cc1 | class 0 |
| CNc1nnc(-c2ccc(N(C)C)cc2)s1 | class 0 |
| CCCCNC(=O)c1ccc(Cn2c(=S)[nH]c3c([nH]c4ccc(OC)cc43)c2=O)cc1 | class 0 |

Ask: Determine if Cc1[nH]cnc1C(=O)N/N=C/c1c(Cl)cccc1Cl shows activity strictly lower than 50%.
Reply: class 0

Ask: Lookup Clc1ccc(CSc2nc3ccncc3[nH]2)cc1
Reply: class 0

Ask: Lookup Brc1ccc(-c2nc(N/N=C/c3cccnc3)c3ccccc3n2)cc1
Reply: class 0

Ask: Lookup Cn1cc(S(=O)(=O)CC(=O)N2CCCc3ccccc32)c2ccccc21
Reply: class 1

Ask: Lookup CCN(CC)S(=O)(=O)c1cc(NC(=O)Cn2ncc(Cl)c(Cl)c2=O)ccc1C
Reply: class 0

---

protocol-notes: caspase-8 TRAIL sensitization, hit retest, confirmation, cell-based, NB7+caspase-8, with/without TRAIL, luminescence panel (AID 651596)
setup-conditions: NB7 neuroblastoma + caspase-8, without TRAIL, luminescence viability, without TRAIL, mean of runs, at 10 µM
result-type: activity (%)
Could you give me the number in %? Just the number is fine.

| compound | units-symbol | activity |
| --- | --- | --- |
| O=C(N/N=C/c1ccc([N+](=O)[O-])o1)c1cc(-c2ccc(-c3ccccc3)cc2)nc2ccccc12 | % | 89.3 |
| COCCCn1c(C(=O)Nc2ccc3c(c2)OCO3)cc2c(=O)n3cccc(C)c3nc21 | % | 28.2 |
| CN(C(=O)c1ccc(NC(=O)Cc2cccc(NC(=O)C3CCCN(S(=O)(=O)c4cccc([N+](=O)[O-])c4)C3)c2)cc1)C1CC1 (configuration not stated) | % | 36.1 |
| CCc1ccc(C2=NNC(=Nc3cccc(S(=O)(=O)N(C)C)c3)SC2)cc1 | % | 75 |
| COc1ccc(NC(=O)c2cc(-c3ccncc3)nc3ccc(Br)cc23)cc1OC | % | 51.5 |

Continue with the next compound.
Ask: Any idea what its activity is? The compound is Cc1noc(N)c1C(=O)Nc1ccc(C(C)(C)C)cc1
Reply: 48.9
